system: ATS189; assay: qHTS profiling for inhibitors of Plasmodium falciparum proliferation (AID 504749); further: nearly all actives have a fitted effect of over 60% in size; conditions: P. falciparum in erythrocytes, SYBR Green DNA, 72 h; series mostly up to 28.7 µM
Records with an inconclusive call do not appear. Calls of active or inactive are those of the source. The call rests on the fitted dose curve; in most records, active means well fitted inhibition curve with a large enough effect; inconclusive means small, poorly fitted or top-dose-only effect; inactive means flat fitted curve, though single readings scatter.
Classes used: YES = active, NO = inactive

>  <MOLECULE>
CCCNCC(O)COc1ccccc1C(=O)CCc1ccccc1 (stereo unspecified)

>  <ASSAY_TARGET>
ATS189

>  <ANSWER_LABEL>
YES

$$$$
>  <MOLECULE>
CNCCCC12CCC(c3ccccc31)c1ccccc12

>  <ASSAY_TARGET>
ATS189

>  <ANSWER_LABEL>
NO

$$$$
>  <MOLECULE>
COc1nc(C)nc(Cl)c1NC1=NCCN1

>  <ASSAY_TARGET>
ATS189

>  <ANSWER_LABEL>
NO

$$$$
>  <MOLECULE>
Cn1c(=O)c2c(ncn2C)n(C)c1=O

>  <ASSAY_TARGET>
ATS189

>  <ANSWER_LABEL>
NO

$$$$
>  <MOLECULE>
Cc1cc(C(C)(C)C)cc(C)c1CC1=NCCN1

>  <ASSAY_TARGET>
ATS189

>  <ANSWER_LABEL>
NO

$$$$
>  <MOLECULE>
O=C1c2c(O)ccc(O)c2C(=O)c2c(NCCNCCO)ccc(NCCNCCO)c21

>  <ASSAY_TARGET>
ATS189

>  <ANSWER_LABEL>
YES

$$$$
>  <MOLECULE>
NCCCCCC(=O)O

>  <ASSAY_TARGET>
ATS189

>  <ANSWER_LABEL>
NO

$$$$
>  <MOLECULE>
CC(CCc1ccc(O)cc1)NCCc1ccc(O)c(O)c1 (stereo unspecified)

>  <ASSAY_TARGET>
ATS189

>  <ANSWER_LABEL>
NO

$$$$
>  <MOLECULE>
Nc1nc2c(ncn2COC(CO)CO)c(=O)[nH]1

>  <ASSAY_TARGET>
ATS189

>  <ANSWER_LABEL>
NO

$$$$
>  <MOLECULE>
CN(C)CCC=C1c2ccccc2C=Cc2ccccc21

>  <ASSAY_TARGET>
ATS189

>  <ANSWER_LABEL>
NO

$$$$
>  <MOLECULE>
NCCc1cnc[nH]1

>  <ASSAY_TARGET>
ATS189

>  <ANSWER_LABEL>
NO

$$$$

---

assay: Quantitative High-Throughput drug screen in 47 multiple myeloma cell lines against the NCATS MIPE library collection: OCIMY7_PLB cell viability assay (AID 1918987); details: OCI-MY7 myeloma viability, CellTiter-Glo ATP, 48 h; series mostly up to 45.8 µM; further: nearly all actives have a fitted effect of over 65% in size
Results filed as inconclusive are left out. Activity calls are given as the source filed them. Calls come from the whole dose curve; as a rule, active = well fitted cell-killing curve with a large enough effect; inconclusive = small, poorly fitted or top-dose-only effect, or effect the other way; inactive = no such curve, though single readings can be large or run the other way.
Classes used: YES (active), NO (inactive)

>  <COMPOUND>
Fc1ccc([C@@H]2CCNC[C@H]2COc2ccc3c(c2)OCO3)cc1

>  <ANSWER_LABEL>
NO

$$$$
>  <COMPOUND>
Nc1c2c(nc3ccccc13)CCCC2

>  <ANSWER_LABEL>
NO

$$$$
>  <COMPOUND>
O=C1c2c(O)ccc(O)c2C(=O)c2c(NCCNCCO)ccc(NCCNCCO)c21

>  <ANSWER_LABEL>
YES

$$$$
>  <COMPOUND>
N[C@@H](Cc1c[nH]c2ccc(O)cc12)C(=O)O

>  <ANSWER_LABEL>
NO

$$$$
>  <COMPOUND>
COc1cc2nc(N3CCN(C(=O)C4COc5ccccc5O4)CC3)nc(N)c2cc1OC (stereo unspecified)

>  <ANSWER_LABEL>
YES

$$$$
>  <COMPOUND>
CC(C(=O)O)c1cccc(C(=O)c2ccccc2)c1 (stereo unspecified)

>  <ANSWER_LABEL>
NO

$$$$
>  <COMPOUND>
CCC1(c2ccccc2)C(=O)NCNC1=O

>  <ANSWER_LABEL>
YES

$$$$
>  <COMPOUND>
CN(C)C(=O)C(CCN1CCC(O)(c2ccc(Cl)cc2)CC1)(c1ccccc1)c1ccccc1

>  <ANSWER_LABEL>
YES

$$$$
>  <COMPOUND>
CC12CC3CC(C)(C1)CC(N)(C3)C2

>  <ANSWER_LABEL>
YES

$$$$
>  <COMPOUND>
CN(C)CCCN1c2ccccc2CCc2ccc(Cl)cc21

>  <ANSWER_LABEL>
YES

$$$$
>  <COMPOUND>
Cc1cn([C@H]2C[C@H](N=[N+]=[N-])[C@@H](CO)O2)c(=O)[nH]c1=O

>  <ANSWER_LABEL>
YES

$$$$
